biological target: T1, Rab6B^Q72L, GTPase domain (residues 8-176), constitutively active mutant (mouse, UniProt P61294 8-176, Q72L); experiment: ITC; MicroCal PEAQ-ITC, 25 °C, 50 mM Tris pH 7.5, 100 mM NaCl, 2 mM MgCl2; typically one protein (400 μM) in the syringe into its binding protein (40 μM) in the cell; conditions: both partners purified
T1 construct: Rab6B, mouse, GenBank NM_173781.4, GTPase domain residues 8-176, with Q72L; Used in analytical gel filtration and ITC; The methods tell of tag cleavage (HRV 3C) only for crystallization, so the Trx-His6 tag was probably still on; also called continuously active mutant Rab6B^Q72L; active form of Rab6B; source: E. coli BL21(DE3), purified (Ni2+-NTA, size-exclusion chromatography)
T1 sequence (P61294 8-176 Q72L): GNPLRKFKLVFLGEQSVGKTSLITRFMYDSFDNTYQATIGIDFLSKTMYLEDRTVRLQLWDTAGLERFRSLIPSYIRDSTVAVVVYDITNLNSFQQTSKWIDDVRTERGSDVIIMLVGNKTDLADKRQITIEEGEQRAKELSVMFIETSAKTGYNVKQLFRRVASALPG
MEASURED PARAMETER: Kd

Task: Would you kindly share the measured Kd for ELKS1_RBD, Rab-binding domain of ELKS1 (residues 849-922) (domain or fragment, rat, UniProt Q811U3 849-922, looked up, As used in analytical gel filtration and ITC; source: E. coli BL21(DE3), purified (Ni2+-NTA, size-exclusion chromatography)) RKHLEEVLEMKQEALLAAISEKDANIALLELSSSKKKTQEEVAALKREKDRLVQQLKQQTQNRMKLMADNYEDD ?
Output: ~8 µM
